Study Target: Ribosomal protein S6 kinase alpha-3 (Homo sapiens)
Sequence (P51812 whole entry): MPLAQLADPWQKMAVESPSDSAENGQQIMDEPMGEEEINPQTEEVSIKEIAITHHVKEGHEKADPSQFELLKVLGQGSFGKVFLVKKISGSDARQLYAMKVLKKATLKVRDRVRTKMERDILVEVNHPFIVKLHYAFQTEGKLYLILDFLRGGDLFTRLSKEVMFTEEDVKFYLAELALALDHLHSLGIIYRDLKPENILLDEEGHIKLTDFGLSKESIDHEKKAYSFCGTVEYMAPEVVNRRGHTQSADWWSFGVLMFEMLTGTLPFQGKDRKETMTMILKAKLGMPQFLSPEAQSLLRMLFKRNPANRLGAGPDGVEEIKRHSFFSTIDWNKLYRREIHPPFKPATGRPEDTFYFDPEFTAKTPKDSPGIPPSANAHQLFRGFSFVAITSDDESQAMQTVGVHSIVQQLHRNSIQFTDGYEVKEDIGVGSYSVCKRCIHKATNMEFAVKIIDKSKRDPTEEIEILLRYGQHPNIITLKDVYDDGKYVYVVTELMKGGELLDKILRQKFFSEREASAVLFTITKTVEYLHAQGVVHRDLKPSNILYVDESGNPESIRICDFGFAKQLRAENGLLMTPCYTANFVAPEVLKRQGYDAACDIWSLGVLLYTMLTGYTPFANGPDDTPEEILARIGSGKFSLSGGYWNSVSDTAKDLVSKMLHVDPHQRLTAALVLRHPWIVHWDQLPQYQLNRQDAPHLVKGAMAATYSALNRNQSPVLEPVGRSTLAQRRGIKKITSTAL
Protocol: Inhibition of RSK2 (unknown origin) assessed as phosphorylation by Western lightning enhanced chemiluminescent reagent/HRP activity assay
Run Conditions: read-out: IC50
Quantity: pIC50
Numbers only, as −log10 of the molar value.

Known results for compounds:
1. CC(=O)O[C@H]1[C@@H](O)[C@H](Oc2c(-c3ccc(O)cc3)oc3cc(O)cc(O)c3c2=O)CC[C@@H]1OC(C)=O : 5.05
2. CC(=O)O[C@@H]1[C@@H](OC(C)=O)[C@@H](O)[C@H](Oc2c(-c3ccc(O)cc3)oc3cc(O)cc(O)c3c2=O)C[C@H]1C : 6.57

Would you be so kind as to report pIC50 for each listed record?
1. CC(=O)O[C@@H]1[C@@H](O)[C@@H](OC(C)=O)[C@H](Oc2c(-c3ccc(O)cc3)oc3cc(O)cc(O)c3c2=O)C[C@H]1C
2. CC(=O)O[C@@H]1[C@@H](O)[C@@H](O)[C@H](Oc2c(-c3ccc(O)cc3)oc3cc(O)cc(O)c3c2=O)C[C@H]1C

(A)
1. 5.80
2. 5.91
